# System Tested: GST-NST2 (Arabidopsis thaliana) (UniProt Q9M274)
# Sequence: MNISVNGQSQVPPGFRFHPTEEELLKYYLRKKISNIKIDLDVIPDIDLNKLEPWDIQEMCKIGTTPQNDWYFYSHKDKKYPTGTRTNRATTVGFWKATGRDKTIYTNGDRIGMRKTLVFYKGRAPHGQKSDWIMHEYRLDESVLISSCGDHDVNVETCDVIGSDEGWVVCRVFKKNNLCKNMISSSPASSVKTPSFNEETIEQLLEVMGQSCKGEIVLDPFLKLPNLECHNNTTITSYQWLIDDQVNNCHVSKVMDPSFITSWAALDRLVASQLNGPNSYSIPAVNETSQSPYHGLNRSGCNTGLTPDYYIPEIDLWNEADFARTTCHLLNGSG
# Method Summary: EMSA
# Run Parameters: 10 mM Tris pH 7.5, 50 mM KCl, 1 mM DTT, 2.5% glycerol, 5 mM MgCl2, 0.1% IGEPAL CA-630, 0.05 ug/ul calf thymus DNA, 150 ng protein, 30 min room temperature
Attribute Measured: binding

Example sequences with recorded binding:
1) GTTGGAAGCTCAAGCAATTAAATTATATAAAAACACTAACTACACTGAGCTGTCTCCTTCTTCCACCAAATCTTGTTGCTGTCTCTTGAAGCTTTCTTATGACAC (double strand) [CESA4Sha-E]: binds
2) CCAGATTTGGTAAAGTTTATAAGATACAAAATATTAAGTAAGACTAAAGTAGAAATACATAATAACTTGAAAGCTACTCTAAGTTATACAAATTCTAAAGAACTCAAAAGAATAAC (double strand) [CESA4Bay-C]: binds
3) GAAAGCTACTCTAAGTTATACAAATTCTAAAGAACTCAAAAGAATAACAAACAGTAGAAGTTGGAAGCTCAAGCAATTAAATTA (double strand) [CESA4Sha-D]: no binding
4) GAAAGCTACTCTAAGTTATACAAATTCTAAAGAACTCAAAAGAATAACAAACAGTAGAAGTTGGAAGCTCAAGCAATTAAATTA (double strand) [CESA4Bay-D]: no binding

-- ask # input sequence: GTTGGAAGCTCAAGCAATTAAATTATATAAAAACACTAACTACACTGAGCTGTCTCCTTCTTCCACCAAATCTTGTTGCTGTCTCTTGAAGCTTTCTTATGACAC (double strand) [CESA4Bay-E] ; wanted: its binding
-- reply binds
